- TARGET_OR_TEST_SYSTEM: Gal(b1-4)GlcNAc(b1-3)Gal(b1-4)GlcNAc(b1-3)Gal(b1-4)GlcNAc(b1-3)Gal(b1-4)GlcNAc(b1-3)Gal(b1-4)GlcNAc(b1-2)Man(a1-3)[Gal(b1-4)GlcNAc(b1-3)Gal(b1-4)GlcNAc(b1-3)Gal(b1-4)GlcNAc(b1-3)Gal(b1-4)GlcNAc(b1-3)Gal(b1-4)GlcNAc(b1-2)Man(a1-6)]Man(b1-4)GlcNAc(b1-4)GlcNAc
- EXPERIMENT: glycan array binding signal (z-score within array); higher = stronger binding
- CONDITIONS_USED: glycan notation: IUPAC condensed, linker removed
The sample as a whole holds a higher share of the strongest signals than the screen did.
Measured glycan array binding signal (z-score) by item
RESULT_TYPE: glycan array binding signal (z-score)

Arath Fbox (Arabidopsis thaliana), NP_178341.1 (protein) EFTWGRKRRVKSESSPFDSFPEDCISYIISFTNPRDACVAATVSKTFESTVKSDIIWEKFLPADYESLIPPSRVFSSKKELYFSLCNDPVLFDDDKKSVWLEKASGKRCLMLSAMNLSIIWGDNPQYWQWIPIPESRFEKVAKLRDVCWFEIRGRTNTRVLSPRTRYSAYIVFKGVDKCYGFQNVAIEAAVGVVGQEPSRRLICFSEAIRRGRRNVVKPKQREDGWMEIELGEFFNDGGIMDNDEIEMSALETKQLNRKCGLIIQGIEIRPAKILAAAAASFLEQKLISEEDLNSAVDHHHHHH ... 2.6
CTAEGIKKFEGDGYELFKDNFPAGEKFDNDDTNDQFYTVIF [MUB40 (Lactobacillus reuteri)] ... 3.44
Gal 8 (Mus musculus), Q9JL15 (protein) MGGSHHHHHHGMASMLSLNNLQNIIYNPIIPYVGTITEQLKPGSLIVIRGHVPKDSERFQVDFQLGNSLKPRADVAFHFNPRFKRSSCIVCNTLTQEKWGWEEITYDMPFRKEKSFEIVFMVLKNKFQVAVNGRHVLLYAHRISPEQIDTVGIYGKVNIHSIGFRFSSASALPHTLGDLQSMETSALGLTQINRENIQKPGKLQLSLPFEARLNASMGPGRTVVIKGEVNTNARSFNVDLVAGKTRDIALHLNPRLNVKAFVRNSFLQDAWGEEERNITCFPFSSGMYFEMIIYCDVREFKVAINGVHSLEYKHRFKDLSSIDTLSVDGDIRLLDVRSW ... 3.48
CLECb-Precomplexed (Mus musculus), P43025 (protein) MAKNGLVLCILVVSLLLDQTDGYPSRMKARKHSKRRVKAKDDDLKSQVEKLWREVNALKEMQALQTVCLRGTKVHKKCYLASEGLKHYHEANEDCISKGGTLVVPRNSDEINALRDYGKRSLPGVNDFWLGINDMVTEGKFLDVHGFAVSFLNWDRAQPSGGKRENCVLFSQSAQGKWSDEACRSSKRYICEFIIPTRTRPLEQKLISEEDLAANDILDYKDDDDKV ... 2.1
